Measured log10 of IC50 values are reported for all entries that follow.
target: human PLK1 kinase domain (Homo sapiens, UniProt P53350)
Sequence (P53350 53-305 limits assumed): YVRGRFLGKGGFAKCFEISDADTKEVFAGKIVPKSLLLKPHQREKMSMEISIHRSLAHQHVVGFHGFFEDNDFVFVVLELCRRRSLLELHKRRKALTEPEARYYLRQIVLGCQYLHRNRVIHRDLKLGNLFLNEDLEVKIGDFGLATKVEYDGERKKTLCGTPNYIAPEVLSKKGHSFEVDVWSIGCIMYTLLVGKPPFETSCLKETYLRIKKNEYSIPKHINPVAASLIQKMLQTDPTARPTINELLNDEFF
Heads up: the numbers are on a log10 scale; they represent IC50 in µM.

Problem: Lab note: need log10 of IC50 with human PLK1 kinase domain (Homo sapiens, UniProt P53350) for entry Cc1noc(NS(=O)(=O)c2ccc(Nc3cc(-c4ccc5c(c4)OCO5)ncn3)cc2)c1C , please look it up.
Solution: -0.05

Problem: Also COc1ccc(OC)c(-c2cc(Nc3ccc(S(=O)(=O)Nc4onc(C)c4C)cc3)ncn2)c1 , if possible.
Solution: -0.72

Problem: Similarly, Cc1noc(NS(=O)(=O)c2ccc(Nc3cc(-c4ccc(F)cc4F)ncn3)cc2)c1C ?
Solution: -0.43

Problem: Try this compound next: Cc1noc(NS(=O)(=O)c2ccc(Nc3cc(-c4c(F)cccc4OC(C)C)ncn3)cc2)c1C
Solution: 0.25

Problem: Consider next the compound COc1cccc(-c2cc(Nc3ccc(S(=O)(=O)Nc4onc(C)c4C)cc3)ncn2)c1 in the same way.
Solution: 0.40

More entries:
Problem: Find log10 of IC50 (human PLK1 kinase domain (Homo sapiens, UniProt P53350)) for the entry CCCOc1ccccc1-c1cc(Nc2ccc(S(=O)(=O)Nc3onc(C)c3C)cc2)ncn1
Solution: -0.03

Problem: Same thing, different compound: COc1cccc(F)c1-c1cc(Nc2ccc(S(=O)(=O)Nc3onc(C)c3C)cc2)ncn1
Solution: 0.16

Problem: Try the compound COc1ccc(-c2cc(Nc3ccc(S(=O)(=O)Nc4onc(C)c4C)cc3)ncn2)c(OC)c1
Solution: -0.02

Reference for the values: patent US20150368209A1
